# studySystem: GAL4-PPAR γ chimeric nuclear receptor (human PPAR γ ligand binding domain) (Homo sapiens)
# Sequence (P37231 202-503, change not shown): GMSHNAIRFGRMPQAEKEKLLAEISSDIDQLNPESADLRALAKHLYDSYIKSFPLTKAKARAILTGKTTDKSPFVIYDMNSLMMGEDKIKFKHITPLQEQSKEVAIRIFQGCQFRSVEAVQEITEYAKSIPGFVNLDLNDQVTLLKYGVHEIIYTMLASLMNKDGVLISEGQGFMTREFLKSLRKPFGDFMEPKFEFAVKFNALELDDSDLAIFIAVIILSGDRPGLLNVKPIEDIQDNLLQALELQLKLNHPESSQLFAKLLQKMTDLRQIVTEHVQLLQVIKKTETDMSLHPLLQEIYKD
# procedureText: PPAR γ transactivation assay by transient gene transfer (GAL4-PPAR γ chimeric receptor, luciferase reporter, HEK293EBNA cells)
# assaySetup: concentration showing 50% of efficacy (maximum activity rate relative to pioglitazone = 100%), 24 hr
pEC50: −log10 of the molar value.
propertyMeasured: pEC50

C/C(=C1/c2ccc(Cc3c(C)nc4cc(C(F)(F)F)ccn34)cc2COc2cc(F)ccc21)c1noc(=O)[nH]1 [Compound 11b] : 7.86

(a) C/C(=C1/c2ccc(Cn3c(C4CC(F)(F)C4)nc4ccccc43)cc2COc2cc(F)ccc21)c1noc(=O)[nH]1
(b) C/C(=C1/c2ccc(Cc3c(C)nc4cc(C5CC5)ccn34)cc2COc2cc(F)ccc21)c1noc(=O)[nH]1 [Compound 14g]
(c) C/C(=C1/c2ccc(Cc3c(C4CC4)nc4c(C)nccn34)cc2COc2cc(F)ccc21)c1noc(=O)[nH]1 [Compound 14a]
Inquiry: Highest pEC50 first, then in falling order down to the smallest. Rank them, then answer with their labels in that order.
Reply text: a, c, b
(a: 8.14, c: 7.80, b: 6.89)

Data provenance: patent US8969345B2
